# MIST_MERS listing for each entry below
System: SARS-CoV-1, MERS-CoV and SARS-CoV-2 proteins in HEK293T cells
Set-up: species or system human
Hey, just send me the number, nothing else.

Form field: reported MIST_MERS of M-Q5BJH7 (protein, UniProt Q5BJH7 1-314, looked up) Protein YIF1B: MHPAGLAAAAAGTPRLRKWPSKRRIPVSQPGMADPHQLFDDTSSAQSRGYGAQRAPGGLSYPAASPTPHAAFLADPVSNMAMAYGSSLAAQGKELVDKNIDRFIPITKLKYYFAVDTMYVGRKLGLLFFPYLHQDWEVQYQQDTPVAPRFDVNAPDLYIPAMAFITYVLVAGLALGTQDRFSPDLLGLQASSALAWLTLEVLAILLSLYLVTVNTDLTTIDLVAFLGYKYVGMIGGVLMGLLFGKIGYYLVLGWCCVAIFVFMIRTLRLKILADAAAEGVPVRGARNQLRMYLTMAVAAAQPMLMYWLTFHLVR 0.3712

Same again, this time with M-Q9BV40 (protein, UniProt Q9BV40 1-100, looked up, host interactor of M) Vesicle-associated membrane …: MEEASEGGGNDRVRNLQSEVEGVKNIMTQNVERILARGENLEHLRNKTEDLEATSEHFKTTSQKVARKFWWKNVKMIVLICVIVFIIILFIVLFATGAFS 0.9874

Reference source for all entries: patent US20230395193A1
